src = patent US20090270413A1

Target: Human Cav2.2 channels (Homo sapiens)
Assay: Block of Cav2.2 (N-type) channels expressed in HEK293 cells
Settings: read-out: Cav 2.2 IC50
property label: pIC50
pIC50 (log units): -log10 of the concentration in mol/L.

Give the measured pIC50 of CC(C)(C)C(=O)Nc1ncccc1C(=O)N1CCN(c2cc(C(C)(C)C)cc(C(C)(C)C)c2)CC1 [Compound 8] .
6.19

Give the measured pIC50 of CCn1nc(C)cc1C(=O)N1CCN(c2cc(C(C)(C)C)cc(C(C)(C)C)c2)CC1 [Compound 33] .
6.08

Give the measured pIC50 of Cc1cc(C(=O)N2CCN(c3cc(C(C)(C)C)cc(C(C)(C)C)c3)CC2)n(C(C)(C)C)n1 [Compound 10] .
6.43

Give the measured pIC50 of CCSc1ncccc1C(=O)N1CCN(c2cc(C(C)(C)C)cc(C(C)(C)C)c2)CC1 [Compound 45] .
5.97

====

Target: Human Cav2.2 channels (Homo sapiens, UniProt Q00975)
Construct: expressed in transfected cells
Sequence (Q00975 whole entry): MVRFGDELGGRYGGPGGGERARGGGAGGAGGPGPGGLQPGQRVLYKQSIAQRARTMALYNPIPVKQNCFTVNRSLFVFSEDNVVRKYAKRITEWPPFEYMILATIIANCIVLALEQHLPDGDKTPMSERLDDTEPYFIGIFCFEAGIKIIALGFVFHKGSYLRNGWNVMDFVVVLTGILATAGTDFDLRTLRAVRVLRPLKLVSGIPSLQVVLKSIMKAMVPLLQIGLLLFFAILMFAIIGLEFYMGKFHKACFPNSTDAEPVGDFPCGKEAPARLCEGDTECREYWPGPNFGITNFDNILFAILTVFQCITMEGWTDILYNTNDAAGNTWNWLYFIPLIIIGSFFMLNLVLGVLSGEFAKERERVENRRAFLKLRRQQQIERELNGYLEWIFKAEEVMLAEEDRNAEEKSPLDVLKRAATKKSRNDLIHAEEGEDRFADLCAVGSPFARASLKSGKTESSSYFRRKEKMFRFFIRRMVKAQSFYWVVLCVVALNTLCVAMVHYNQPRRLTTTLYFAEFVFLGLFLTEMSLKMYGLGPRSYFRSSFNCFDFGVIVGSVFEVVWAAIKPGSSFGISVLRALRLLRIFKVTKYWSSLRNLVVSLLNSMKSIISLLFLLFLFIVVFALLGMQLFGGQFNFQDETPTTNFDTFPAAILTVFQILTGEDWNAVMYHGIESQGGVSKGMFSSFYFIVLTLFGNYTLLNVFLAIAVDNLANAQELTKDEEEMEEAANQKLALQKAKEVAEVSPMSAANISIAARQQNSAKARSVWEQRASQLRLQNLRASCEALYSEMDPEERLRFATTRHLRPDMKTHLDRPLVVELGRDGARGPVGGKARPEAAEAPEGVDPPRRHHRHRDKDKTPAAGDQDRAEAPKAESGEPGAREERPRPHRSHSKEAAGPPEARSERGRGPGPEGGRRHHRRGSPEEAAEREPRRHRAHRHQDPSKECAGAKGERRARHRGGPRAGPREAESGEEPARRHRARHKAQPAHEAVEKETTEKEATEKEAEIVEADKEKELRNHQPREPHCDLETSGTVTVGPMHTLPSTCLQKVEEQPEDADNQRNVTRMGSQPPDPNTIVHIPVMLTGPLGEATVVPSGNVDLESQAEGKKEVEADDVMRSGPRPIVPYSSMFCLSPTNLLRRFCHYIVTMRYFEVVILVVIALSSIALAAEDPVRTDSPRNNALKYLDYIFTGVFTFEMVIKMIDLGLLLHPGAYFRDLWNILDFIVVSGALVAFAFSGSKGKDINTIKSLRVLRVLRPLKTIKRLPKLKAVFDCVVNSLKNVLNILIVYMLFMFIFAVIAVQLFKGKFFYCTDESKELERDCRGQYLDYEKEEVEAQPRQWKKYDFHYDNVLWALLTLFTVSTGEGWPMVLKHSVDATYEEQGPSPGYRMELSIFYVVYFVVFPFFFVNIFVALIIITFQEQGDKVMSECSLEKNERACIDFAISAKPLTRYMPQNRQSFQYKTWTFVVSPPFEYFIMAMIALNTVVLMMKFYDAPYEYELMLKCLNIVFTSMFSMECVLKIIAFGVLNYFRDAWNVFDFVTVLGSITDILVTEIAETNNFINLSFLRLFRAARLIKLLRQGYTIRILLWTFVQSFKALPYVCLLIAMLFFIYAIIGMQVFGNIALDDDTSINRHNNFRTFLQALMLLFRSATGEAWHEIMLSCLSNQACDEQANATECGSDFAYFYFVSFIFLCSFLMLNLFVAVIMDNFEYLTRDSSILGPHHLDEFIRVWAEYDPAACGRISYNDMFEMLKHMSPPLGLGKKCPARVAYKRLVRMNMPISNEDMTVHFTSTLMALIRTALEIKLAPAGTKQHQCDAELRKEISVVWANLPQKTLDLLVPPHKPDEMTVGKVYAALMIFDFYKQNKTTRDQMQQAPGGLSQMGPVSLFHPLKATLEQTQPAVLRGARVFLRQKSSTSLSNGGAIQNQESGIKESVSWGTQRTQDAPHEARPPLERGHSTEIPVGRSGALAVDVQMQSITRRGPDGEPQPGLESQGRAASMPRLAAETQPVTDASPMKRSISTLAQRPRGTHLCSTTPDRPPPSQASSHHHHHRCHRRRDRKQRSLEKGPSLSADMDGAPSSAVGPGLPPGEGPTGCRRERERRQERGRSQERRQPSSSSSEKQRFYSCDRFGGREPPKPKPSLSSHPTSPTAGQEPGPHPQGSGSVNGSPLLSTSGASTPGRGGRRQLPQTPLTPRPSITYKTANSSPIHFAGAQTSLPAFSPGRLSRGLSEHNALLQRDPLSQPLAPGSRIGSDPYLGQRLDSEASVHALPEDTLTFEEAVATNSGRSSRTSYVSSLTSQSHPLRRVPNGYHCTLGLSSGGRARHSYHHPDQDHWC
Sequence (P54289 25-956 partner limits assumed): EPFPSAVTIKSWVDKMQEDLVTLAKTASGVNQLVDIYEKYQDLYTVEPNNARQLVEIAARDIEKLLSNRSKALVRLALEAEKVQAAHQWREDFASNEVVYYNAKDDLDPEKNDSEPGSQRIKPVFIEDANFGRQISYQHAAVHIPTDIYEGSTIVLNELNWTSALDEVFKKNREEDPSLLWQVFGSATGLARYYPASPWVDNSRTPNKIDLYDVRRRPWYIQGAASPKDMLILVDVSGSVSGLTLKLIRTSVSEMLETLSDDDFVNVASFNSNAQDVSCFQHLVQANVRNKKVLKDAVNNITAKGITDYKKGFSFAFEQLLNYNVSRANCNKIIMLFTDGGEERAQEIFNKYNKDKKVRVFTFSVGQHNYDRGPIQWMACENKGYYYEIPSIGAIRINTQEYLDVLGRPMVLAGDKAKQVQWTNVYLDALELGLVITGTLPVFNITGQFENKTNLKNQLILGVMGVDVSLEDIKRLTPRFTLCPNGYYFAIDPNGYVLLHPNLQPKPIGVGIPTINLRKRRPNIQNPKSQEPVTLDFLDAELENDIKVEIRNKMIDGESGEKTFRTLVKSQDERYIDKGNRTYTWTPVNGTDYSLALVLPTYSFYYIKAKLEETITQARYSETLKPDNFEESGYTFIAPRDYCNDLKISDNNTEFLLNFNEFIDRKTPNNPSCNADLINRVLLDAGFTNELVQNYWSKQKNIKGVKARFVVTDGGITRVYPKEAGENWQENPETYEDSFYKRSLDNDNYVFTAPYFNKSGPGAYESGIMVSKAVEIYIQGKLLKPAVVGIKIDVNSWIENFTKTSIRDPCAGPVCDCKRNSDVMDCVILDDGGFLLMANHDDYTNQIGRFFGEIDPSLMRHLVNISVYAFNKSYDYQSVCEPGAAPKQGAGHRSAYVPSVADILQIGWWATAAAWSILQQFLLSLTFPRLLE
Sequence (P54289 957-1103 partner limits assumed): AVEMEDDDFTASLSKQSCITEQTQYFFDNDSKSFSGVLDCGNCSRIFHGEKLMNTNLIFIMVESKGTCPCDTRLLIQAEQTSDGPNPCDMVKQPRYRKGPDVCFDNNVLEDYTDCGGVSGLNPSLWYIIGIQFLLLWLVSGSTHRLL
Sequence (P54284 whole entry partner): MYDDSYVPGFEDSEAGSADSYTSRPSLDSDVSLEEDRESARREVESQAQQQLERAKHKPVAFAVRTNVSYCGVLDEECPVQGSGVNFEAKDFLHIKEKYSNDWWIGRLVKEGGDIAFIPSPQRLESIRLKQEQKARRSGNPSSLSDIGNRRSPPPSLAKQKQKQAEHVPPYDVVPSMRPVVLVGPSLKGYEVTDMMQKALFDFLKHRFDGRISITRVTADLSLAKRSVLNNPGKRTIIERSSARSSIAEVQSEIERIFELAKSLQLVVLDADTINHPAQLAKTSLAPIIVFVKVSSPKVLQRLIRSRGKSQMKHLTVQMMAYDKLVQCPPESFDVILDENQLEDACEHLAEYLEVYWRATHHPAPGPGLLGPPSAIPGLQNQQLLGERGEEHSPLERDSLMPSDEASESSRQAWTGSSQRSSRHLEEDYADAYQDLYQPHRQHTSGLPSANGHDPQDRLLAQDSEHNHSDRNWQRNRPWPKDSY
Assay: Block of Cav2.2 (N-type) channels expressed in HEK293 cells
Assay type: cell-based
Details: HEK293; read-out: Cav 2.2 % Inh @ 30 μM
Kindly state inhibition at 30 µM for each of the entries shown.
Answer with a number only, understood to be in %.

Give the measured inhibition at 30 µM of Cn1nc(C(C)(C)C)cc1C(=O)N1CCN(c2cc(C(C)(C)C)cc(C(C)(C)C)c2)CC1 .
97

Give the measured inhibition at 30 µM of CC(C)(C)C(=O)Nc1cc(C(=O)N2CCN(c3cc(C(C)(C)C)cc(C(C)(C)C)c3)CC2)ccn1 .
103

Give the measured inhibition at 30 µM of CC(C)(C)c1cc(N2CCN(C(=O)c3cc4cccnc4nc3C(F)(F)F)CC2)cc(C(C)(C)C)c1 .
69

Give the measured inhibition at 30 µM of CC(C)(C)c1cc(N2CCN(C(=O)c3ccc(OCC(F)(F)F)nc3)CC2)cc(C(C)(C)C)c1 .
104

Give the measured inhibition at 30 µM of CC(C)(C)c1cc(N2CCN(C(=O)c3nsc(Cl)c3Cl)CC2)cc(C(C)(C)C)c1 .
89

Give the measured inhibition at 30 µM of CC(C)(C)c1cc(N2CCN(C(=O)COc3ccc(F)cc3)CC2)cc(C(C)(C)C)c1 .
97

Give the measured inhibition at 30 µM of CCCSc1ncccc1C(=O)N1CCN(c2cc(C(C)(C)C)cc(C(C)(C)C)c2)CC1 .
104

Give the measured inhibition at 30 µM of CC(C)(C)C(=O)Nc1ncccc1C(=O)N1CCN(c2cc(C(C)(C)C)cc(C(C)(C)C)c2)CC1 .
95

Give the measured inhibition at 30 µM of CC(C)(C)c1cc(N2CCN(C(=O)c3cc(F)cc(C(F)(F)F)c3)CC2)cc(C(C)(C)C)c1 .
98

Give the measured inhibition at 30 µM of Cc1oc(C(C)(C)C)cc1C(=O)N1CCN(c2cc(C(C)(C)C)cc(C(C)(C)C)c2)CC1 .
95

Give the measured inhibition at 30 µM of CC(C)(C)c1cc(N2CCN(C(=O)c3ccc(S(=O)(=O)C(C)(C)C)s3)CC2)cc(C(C)(C)C)c1 .
78

Give the measured inhibition at 30 µM of CC(C)(C)c1cc(N2CCN(C(=O)c3csc(-c4cccc(C(F)(F)F)c4)n3)CC2)cc(C(C)(C)C)c1 .
83

Give the measured inhibition at 30 µM of CCOc1ccc(C(=O)N2CCN(c3cc(C(C)(C)C)cc(C(C)(C)C)c3)CC2)o1 .
100

Give the measured inhibition at 30 µM of CC(C)(C)C(=O)Nc1ccncc1C(=O)N1CCN(c2cc(C(C)(C)C)cc(C(C)(C)C)c2)CC1 .
96

Give the measured inhibition at 30 µM of CCOc1ncccc1C(=O)N1CCN(c2cc(C(C)(C)C)cc(C(C)(C)C)c2)CC1 .
98

Give the measured inhibition at 30 µM of CC(C)(C)c1cc(N2CCN(C(=O)c3ccc(F)cc3)CC2)cc(C(C)(C)C)c1 .
97

Give the measured inhibition at 30 µM of Cc1ccc(C(=O)N2CCN(c3cc(C(C)(C)C)cc(C(C)(C)C)c3)CC2)c(C)c1 .
93

Give the measured inhibition at 30 µM of Cc1nc(C(F)(F)F)ccc1C(=O)N1CCN(c2cc(C(C)(C)C)cc(C(C)(C)C)c2)CC1 .
100

Give the measured inhibition at 30 µM of CC(C)c1cc(C(=O)N2CCN(c3cc(C(C)(C)C)cc(C(C)(C)C)c3)CC2)on1 .
96

Give the measured inhibition at 30 µM of CC(C)(C)c1cc(N2CCN(C(=O)c3cc(C4CC4)nc4ccccc34)CC2)cc(C(C)(C)C)c1 .
91

Give the measured inhibition at 30 µM of COc1ccc(Cl)cc1C(=O)N1CCN(c2cc(C(C)(C)C)cc(C(C)(C)C)c2)CC1 .
101

Give the measured inhibition at 30 µM of CC(C)(C)c1cc(N2CCN(C(=O)c3ccc(C(O)(C(F)(F)F)C(F)(F)F)cc3)CC2)cc(C(C)(C)C)c1 .
73

Give the measured inhibition at 30 µM of Cc1ccc(OCC(=O)N2CCN(c3cc(C(C)(C)C)cc(C(C)(C)C)c3)CC2)c(C)c1 .
93
